// provenance: paper PMC4770456

- STUDY TARGET: PARP-1 (Homo sapiens, UniProt P09874)
- Sequence (P09874 whole entry): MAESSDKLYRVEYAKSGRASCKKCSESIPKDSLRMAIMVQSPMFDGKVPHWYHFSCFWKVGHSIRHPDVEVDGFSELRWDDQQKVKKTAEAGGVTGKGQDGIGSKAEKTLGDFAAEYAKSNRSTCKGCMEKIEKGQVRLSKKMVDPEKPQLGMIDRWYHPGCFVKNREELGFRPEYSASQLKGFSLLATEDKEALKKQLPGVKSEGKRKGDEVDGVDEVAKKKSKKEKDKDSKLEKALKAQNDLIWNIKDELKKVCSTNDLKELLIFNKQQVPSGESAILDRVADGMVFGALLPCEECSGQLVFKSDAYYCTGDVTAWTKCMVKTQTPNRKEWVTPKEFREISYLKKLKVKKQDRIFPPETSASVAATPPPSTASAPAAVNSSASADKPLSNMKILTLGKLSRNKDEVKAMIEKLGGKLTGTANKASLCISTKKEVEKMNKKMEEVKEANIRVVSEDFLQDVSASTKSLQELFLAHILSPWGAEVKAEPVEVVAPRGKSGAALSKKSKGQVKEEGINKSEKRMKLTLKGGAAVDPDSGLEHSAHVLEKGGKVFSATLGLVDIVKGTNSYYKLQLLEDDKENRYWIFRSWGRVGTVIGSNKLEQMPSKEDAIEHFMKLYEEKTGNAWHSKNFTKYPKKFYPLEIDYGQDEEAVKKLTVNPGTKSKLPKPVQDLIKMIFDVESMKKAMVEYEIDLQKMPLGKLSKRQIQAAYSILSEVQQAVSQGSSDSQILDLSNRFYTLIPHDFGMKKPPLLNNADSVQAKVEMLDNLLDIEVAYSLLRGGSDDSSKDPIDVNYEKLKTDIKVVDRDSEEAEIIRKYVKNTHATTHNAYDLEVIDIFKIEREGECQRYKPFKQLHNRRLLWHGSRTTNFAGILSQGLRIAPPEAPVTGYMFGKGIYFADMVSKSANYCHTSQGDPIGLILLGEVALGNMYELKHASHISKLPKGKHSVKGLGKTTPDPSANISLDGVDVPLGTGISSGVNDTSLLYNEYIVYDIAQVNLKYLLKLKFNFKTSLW
- ASSAY REMARKS: PARP-1 inhibitory assay
- Assay type: biochemical
QUANTITY NAME: pIC50
Field pIC50 (float): negative decimal logarithm of the concentration in molar.

Ask: Param item = CC=Cc1cc(OC)cc(C(C)C(O)c2cc(OC)c(OC)c(OC)c2)c1 (stereo not shown) ; retrieve measured pIC50.
Reply: 5.52

* * *

- STUDY TARGET: NF-κB p65 (Homo sapiens)
- Sequence (Q04206 whole entry): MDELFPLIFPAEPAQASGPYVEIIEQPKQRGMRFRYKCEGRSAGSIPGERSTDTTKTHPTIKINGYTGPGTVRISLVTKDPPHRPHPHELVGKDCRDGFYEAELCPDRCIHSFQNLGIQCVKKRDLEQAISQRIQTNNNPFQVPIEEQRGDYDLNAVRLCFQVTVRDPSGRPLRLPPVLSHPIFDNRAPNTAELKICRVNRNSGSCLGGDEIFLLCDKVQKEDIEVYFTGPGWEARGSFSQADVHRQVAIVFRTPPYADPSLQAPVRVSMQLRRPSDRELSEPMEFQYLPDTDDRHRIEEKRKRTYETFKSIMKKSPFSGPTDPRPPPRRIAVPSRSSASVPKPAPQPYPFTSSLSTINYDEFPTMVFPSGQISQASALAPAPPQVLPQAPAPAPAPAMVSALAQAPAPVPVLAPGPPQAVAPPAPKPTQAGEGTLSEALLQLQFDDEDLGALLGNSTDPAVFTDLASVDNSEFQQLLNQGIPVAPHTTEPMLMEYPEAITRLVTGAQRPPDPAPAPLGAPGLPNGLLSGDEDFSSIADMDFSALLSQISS
- ASSAY REMARKS: NF-κB p65 inhibitory assay
- Type: cell-based
- EXPERIMENTAL PARAMETERS: read-out: NF-κB (HeLa) IC50; p65, HeLa cells, TNFα
QUANTITY NAME: IC50 (nM)
Reply with just the number (in nM).

Ask: Param item = C=CCc1cc(OC)c(OC(C)C(OC(C)=O)c2ccc3c(c2)OCO3)c(OC)c1 (stereo not shown) ; retrieve measured IC50.
Reply: 3.4

* * *

- Test system: HT-29 cells
- ASSAY REMARKS: SRB cytotoxicity assay
- Type: cell-based, human
- EXPERIMENTAL PARAMETERS: read-out: Cytotoxicity EC50; HT-29 cells, 72 h, SRB
QUANTITY NAME: EC50 (nM)
Reply with just the number (in nM).

Ask: Param item = C=CCc1cc(OC)c(OC(C)C(OC(C)=O)c2ccc3c(c2)OCO3)c(OC)c1 (centres unmarked) ; retrieve measured EC50.
Reply: 24

Ask: Param item = C/C=C/c1cc(OC)c2c(c1)C(C)C(c1cc(OC)c(OC)c(OC)c1)O2 (centres unmarked) ; retrieve measured EC50.
Reply: 3

* * *

- STUDY TARGET: UniProt P01116
- Sequence (P01116 1-188 isoform P01116-2): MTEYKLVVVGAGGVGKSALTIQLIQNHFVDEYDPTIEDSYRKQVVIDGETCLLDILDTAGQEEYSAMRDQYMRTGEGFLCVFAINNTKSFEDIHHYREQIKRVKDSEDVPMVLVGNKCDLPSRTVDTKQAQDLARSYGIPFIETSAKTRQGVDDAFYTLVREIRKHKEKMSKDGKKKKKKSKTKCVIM
- ASSAY REMARKS: K-Ras inhibitory assay
QUANTITY NAME: IC50 (µM)
Reply with just the number (in µM).

Ask: Param item = CC=Cc1cc(OC)cc(C(C)C(O)c2cc(OC)c(OC)c(OC)c2)c1 (stereo not shown) [Compound 1] ; retrieve measured IC50.
Reply: 10.5

* * *

- STUDY TARGET: PARP-1 (Homo sapiens)
- ASSAY REMARKS: PARP-1 inhibitory assay
- Type: biochemical
- EXPERIMENTAL PARAMETERS: read-out: PARP-1 IC50; enzyme assay
Please go through the items and note down their pIC50.
Field pIC50 (float): negative decimal logarithm of the concentration in molar.

Ask: Param item = C=CCc1cc(OC)c(OC(C)C(OC(C)=O)c2ccc(OC)c(OC)c2)c(OC)c1 (centres unmarked) [Compound 2] ; retrieve measured pIC50.
Reply: 9.00

Ask: Param item = C/C=C/c1cc(OC)c2c(c1)C(C)C(c1cc(OC)c(OC)c(OC)c1)O2 (centres unmarked) [Compound 5] ; retrieve measured pIC50.
Reply: 5.51
